- tested on: Integrin alpha-4 (Homo sapiens) (UniProt P13612)
- Sequence (P13612 whole entry, looked up): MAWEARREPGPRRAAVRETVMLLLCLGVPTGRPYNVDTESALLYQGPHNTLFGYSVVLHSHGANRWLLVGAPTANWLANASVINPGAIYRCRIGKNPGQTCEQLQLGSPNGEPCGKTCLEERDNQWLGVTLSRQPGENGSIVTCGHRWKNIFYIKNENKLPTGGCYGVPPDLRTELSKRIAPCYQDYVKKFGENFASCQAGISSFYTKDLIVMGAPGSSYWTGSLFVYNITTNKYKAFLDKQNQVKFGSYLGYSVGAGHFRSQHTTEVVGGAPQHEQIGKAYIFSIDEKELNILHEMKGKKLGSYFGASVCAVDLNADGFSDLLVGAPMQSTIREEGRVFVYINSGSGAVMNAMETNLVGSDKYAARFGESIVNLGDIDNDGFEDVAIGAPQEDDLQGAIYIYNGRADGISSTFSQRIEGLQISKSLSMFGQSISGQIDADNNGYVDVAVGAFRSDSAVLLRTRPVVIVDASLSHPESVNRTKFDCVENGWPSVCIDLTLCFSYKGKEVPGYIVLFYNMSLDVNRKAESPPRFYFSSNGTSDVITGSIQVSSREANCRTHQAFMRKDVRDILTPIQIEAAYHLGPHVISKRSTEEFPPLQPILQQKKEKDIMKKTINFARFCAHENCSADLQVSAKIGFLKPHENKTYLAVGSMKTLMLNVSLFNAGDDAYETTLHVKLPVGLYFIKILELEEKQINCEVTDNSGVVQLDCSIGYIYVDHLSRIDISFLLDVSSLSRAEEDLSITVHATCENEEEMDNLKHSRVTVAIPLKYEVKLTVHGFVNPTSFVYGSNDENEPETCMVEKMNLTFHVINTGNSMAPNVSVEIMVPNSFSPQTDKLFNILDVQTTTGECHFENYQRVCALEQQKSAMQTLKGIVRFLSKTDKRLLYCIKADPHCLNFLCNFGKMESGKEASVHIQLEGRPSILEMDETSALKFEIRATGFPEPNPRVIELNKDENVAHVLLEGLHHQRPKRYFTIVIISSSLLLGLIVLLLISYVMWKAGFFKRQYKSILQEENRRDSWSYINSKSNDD
- experiment: enhancers of LDV-FITC binding to VLA-4 integrin, primary screen, Jurkat cells, flow cytometry (AID 528);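 also: 0% = ligand binding without compound and 100% = manganese-stimulated maximal binding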
- experimental context: hits give high values, screened at 10 µM (by protocol)
The campaign covered roughly 24,000 compounds. Fewer than 10 were called active. Roughly 9% stayed inconclusive and do not appear here. The list is a sample of the results.
measured metric: activation (%)
// return numeric value only (unit: %, not printed)

Ask: Entry under review: O=C1CC(c2cccc(F)c2)C2=C(CCCC2=O)N1 (stereo unspecified) . Reported activation?
Reply: 0

Ask: Entry under review: COc1cccc(NC(=O)C2CCCN2C(=O)OCc2ccccc2)c1 (stereo unspecified) . Reported activation?
Reply: -5
